tested on: HEK-293T; assay: Incucyte cell viability with HEK293T; type: toxicity, cell-based; conditions: human, 6 h, 10 µM, compound concentration 10 uM, replicate number 1, timepoint 6 hours; further: filed as whole numbers so only -1 and 0 and 1 occur
readout: Growth Rate

Use these answered entries as a reference point.
- molecule: "CN(C)CCCn1cc(C2=C(c3c[nH]c4ccccc34)C(=O)NC2=O)c2ccccc21"
  data.value: 0
- molecule: "Nc1nc(NCCc2ccc(O)cc2)nc2nc(-c3ccco3)nn12"
  data.value: 0
- molecule: "CCCc1cc(C)[nH]c(=O)c1CNC(=O)c1cc(-c2ccnc(N3CCN(C)CC3)c2)cc2c1cnn2C(C)C"
  data.value: 0
- molecule: "Cc1cccc(NC(=O)N[C@@H]2N=C(c3ccccc3)c3ccccc3N(C)C2=O)c1"
  data.value: 0
- molecule: "Cc1nc(C#Cc2ccnc(Cl)c2)c(C)n1-c1ccc(OC(F)(F)F)cc1"
  data.value: 0
- molecule: "CNC(=O)c1cc(Oc2ccc(NC(=O)Nc3cc(C(C)(C)C)nn3-c3ccc4ncccc4c3)c(F)c2)ccn1"
  data.value: 0

Give Growth Rate for all molecules that follow.
1. C[C@H](CO)Nc1nc(SCc2cccc(Cl)c2F)nc2[nH]c(=O)sc12
2. CCCCN(CCCC)C(=O)CN1C[C@@H](c2cc(OC)c3c(c2)OCO3)[C@H](C(=O)O)[C@H]1CC(C)(C)CCC.Cl
3. CCOc1cc2ncc(C#N)c(Nc3ccc(OCc4cccc(F)c4)c(Cl)c3)c2cc1NC(=O)/C=C/CN(C)C
4. CN(CCOc1ccc(C[C@H](Nc2ccccc2C(=O)c2ccccc2)C(=O)O)cc1)c1ccccn1.O
5. CCN(CC)CCCCC1CCN(CC(=O)N2c3ccccc3C(=O)Nc3cccnc32)CC1
6. CCCc1c(-c2ccc(O)cc2)nn(-c2ccc(O)cc2)c1-c1ccc(O)cc1

Ans.
1
0
0
0
1
1

Give Growth Rate for all molecules that follow.
1. CN(C)C(=O)c1ccc(-c2cc(C(=O)N(C)C3CCCC3)no2)cc1O
2. Nc1ccc(C(=O)Nc2cccc(-c3nc(N4CCOCC4)c4oc5ncccc5c4n3)c2)cn1
3. Cc1cc(C(=O)N2Cc3cnn(C)c3Nc3ccccc32)ccc1CNC(=O)N1CCC[C@H]1C(=S)N1CCCN(C)CC1
4. CN(C)CC[C@@H](c1ccc(Cl)cc1)c1ccccn1.O=C(O)/C=C\C(=O)O [DEXCHLORPHENIRAMINE MALEATE]
5. FC(F)c1nc2ccccc2n1-c1nc(N2CCOCC2)nc(N2CCOCC2)n1

Ans.
1. 1
2. 0
3. 0
4. 1
5. 0

* * *

test system: HEK-293T; test: Multiplex assay against HEK293T; type: toxicity, cell-based; settings: human, 12 h, 1 µM, compound concentration 1 uM, replicate 2
readout: Population Healthy Nuclei (%)
Answers are plain numbers, in %.

- structure.notation: "COc1cc2c(Nc3ccc(NC(=O)c4ccccc4)cc3)ncnc2cc1OCCCN1CCOCC1"
  readout: "Population Healthy Nuclei (%)"
  unit.abbreviation: "%"
  data.value: 84
- structure.notation: "CC(=O)c1cc(-c2cc(C(=O)NC3CC3)ccc2C)c2ncccn12"
  readout: "Population Healthy Nuclei (%)"
  unit.abbreviation: "%"
  data.value: 48
- structure.notation: "COc1ccc(NS(=O)(=O)c2sc3ccc(Cl)cc3c2C)cc1N1CCNCC1.Cl"
  readout: "Population Healthy Nuclei (%)"
  unit.abbreviation: "%"
  data.value: 41
- structure.notation: "CCCn1c(=O)c2[nH]c(C34CC5CC(CC3C5)C4)nc2n(CCC)c1=O"
  readout: "Population Healthy Nuclei (%)"
  unit.abbreviation: "%"
  data.value: 43

Qu. Give its Population Healthy Nuclei (%) value. Item: `CN(C)CCOc1ccc(-c2nc(-c3ccncc3)c(-c3ccc4c(c3)CC/C4=N\O)[nH]2)cc1`
Ans. 88
